test system: RNA 7 (RNA, aptamer) GGCAAGUACUCUGACGCAGAUGGAAGUACCUUUGAACUGGGGGAGAAUGGUUAUGAGAAUCUAGCGAAGCCGGAGGUGCGUAGAGGAGGACAGCG; assay: isocratic affinity elution from His–Phe–Sepharose; details: 600 mM NaCl, 5 mM MgCl2, 5 mM CaCl2; 50 mM HEPES pH 7.0
Residues, ends and D or L forms follow the SMILES beside them.
property_label: K D (mM)
Please state the figure in mM; there is no need to write the unit.

- molecule: "N[C@@H](Cc1c[nH]cn1)C(=O)NCC(=O)O (H-His-Gly-OH)"
  measurement_unit: "mM"
  reported_measurement: 10.5
- molecule: "N[C@@H](Cc1ccccc1)C(=O)O"
  measurement_unit: "mM"
  reported_measurement: 22
- molecule: "N[C@@H](Cc1cnc[nH]1)C(=O)N[C@@H](Cc1ccccc1)C(=O)O (H-His-Phe-OH)"
  measurement_unit: "mM"
  reported_measurement: 0.478

From here, focus on the item given below.
Fill blank: measured K D of the molecule NCC(=O)N[C@@H](Cc1ccccc1)C(=O)O (H-Gly-Phe-OH) is ____.
31.6

====

tested on: RNA 40 (RNA, aptamer) GGCAAGUACUCUGACGCAAGGGUAGAUAUGCGUAUAUGCAGAUCCCAAAUAAAGGACGAAUUUAGUACGGGGGGUGUGCGUAGAGGAGGACAGCG; experiment: isocratic affinity elution from His–Phe–Sepharose; settings: 600 mM NaCl, 5 mM MgCl2, 5 mM CaCl2; 50 mM HEPES pH 7.0
Residues, ends and D or L forms follow the SMILES beside them.
property_label: K D (mM)
Please state the figure in mM; there is no need to write the unit.

Look over these answered cases.
- molecule: "NCC(=O)N[C@@H](Cc1ccccc1)C(=O)O (H-Gly-Phe-OH)"
  property_label: "K D"
  reported_measurement: 9.3
- molecule: "N[C@@H](Cc1c[nH]cn1)C(=O)NCC(=O)O (H-His-Gly-OH)"
  property_label: "K D"
  reported_measurement: 3.4

From here, focus on the item given below.
Fill blank: measured K D of the molecule N[C@@H](Cc1cnc[nH]1)C(=O)N[C@@H](Cc1ccccc1)C(=O)O (H-His-Phe-OH) is ____.
0.077

====

We begin with a simple list: items and their reported K D.
tested on: RNA 25 (RNA, aptamer) GGCAAGUACUCUGACGCCGAAGCCAGCCGGCGAUUGGGAACGACGGAAUUCCUCACUUCUGUUAAAGGUCAACCAGGGCGUAGAGGAGGACAGCG; experiment: isocratic affinity elution from His–Phe–Sepharose; conditions: 600 mM NaCl, 5 mM MgCl2, 5 mM CaCl2; 50 mM HEPES pH 7.0
Residues, ends and D or L forms follow the SMILES beside them.

Look over these answered cases.
- compound: "N[C@@H](Cc1cnc[nH]1)C(=O)O"
  K D: "> 727 mM"
- compound: "N[C@@H](Cc1ccccc1)C(=O)O"
  K D: "> 727 mM"

From here, focus on the item given below.
Fill blank: measured K D of the compound NCC(=O)N[C@@H](Cc1ccccc1)C(=O)O (H-Gly-Phe-OH) is ____.
> 727 mM
